TARGET: T1, CD19 (UniProt P15391 20-556, limits assumed)
T1 construct: whole, on cells; also called CD19 on JeKo-1
T1 sequence (looked up): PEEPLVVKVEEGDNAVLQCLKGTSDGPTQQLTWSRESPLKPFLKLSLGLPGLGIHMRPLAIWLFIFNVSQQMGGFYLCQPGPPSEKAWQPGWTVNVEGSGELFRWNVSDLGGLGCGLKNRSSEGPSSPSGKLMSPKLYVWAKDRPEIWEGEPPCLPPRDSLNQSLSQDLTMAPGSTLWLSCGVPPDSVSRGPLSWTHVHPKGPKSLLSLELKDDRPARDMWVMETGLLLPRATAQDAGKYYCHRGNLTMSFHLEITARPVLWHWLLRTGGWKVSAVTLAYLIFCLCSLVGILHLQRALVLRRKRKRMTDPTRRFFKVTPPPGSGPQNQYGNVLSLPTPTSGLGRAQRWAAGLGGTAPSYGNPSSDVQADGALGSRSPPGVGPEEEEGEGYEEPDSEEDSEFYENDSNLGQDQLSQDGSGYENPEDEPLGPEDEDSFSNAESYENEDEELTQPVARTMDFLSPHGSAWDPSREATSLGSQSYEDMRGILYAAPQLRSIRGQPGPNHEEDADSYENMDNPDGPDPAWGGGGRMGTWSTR
TEST METHOD NOTES: flow cytometry, JeKo-1 cells, anti-His-FITC detection, MFI over no-bridge control
REPORTED PROPERTY: MFIR HisTag FITC
Enter the number alone.

Some solved entries appear below for comparison.
[
  {
    "BINDER": "CD19 BRIDGE variant B2 (Fab, V domains shown) VH: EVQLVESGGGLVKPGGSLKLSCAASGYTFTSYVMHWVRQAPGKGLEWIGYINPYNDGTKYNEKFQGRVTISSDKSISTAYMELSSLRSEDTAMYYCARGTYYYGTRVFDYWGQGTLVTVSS VL: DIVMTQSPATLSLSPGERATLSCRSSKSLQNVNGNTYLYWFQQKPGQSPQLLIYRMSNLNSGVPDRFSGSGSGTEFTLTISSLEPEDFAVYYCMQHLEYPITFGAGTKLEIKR",
    "MFIR HisTag FITC": 4.51
  },
  {
    "BINDER": "CD19 BRIDGE variant B26 (Fab, V domains shown) VH: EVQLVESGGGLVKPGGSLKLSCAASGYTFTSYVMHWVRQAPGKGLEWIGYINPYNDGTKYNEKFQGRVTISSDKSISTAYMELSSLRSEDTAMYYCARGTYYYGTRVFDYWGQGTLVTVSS VL: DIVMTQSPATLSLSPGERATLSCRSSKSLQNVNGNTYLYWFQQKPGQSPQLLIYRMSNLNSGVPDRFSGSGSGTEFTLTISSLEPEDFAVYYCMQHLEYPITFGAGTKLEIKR",
    "MFIR HisTag FITC": 3.06
  }
]

Let us examine a further case.
Query :: // Input: CD19 BRIDGE variant B14 (Fab, V domains shown) VH: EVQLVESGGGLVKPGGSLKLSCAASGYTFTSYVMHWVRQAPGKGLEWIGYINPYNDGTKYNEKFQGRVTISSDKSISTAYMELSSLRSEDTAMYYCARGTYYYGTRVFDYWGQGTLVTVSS VL: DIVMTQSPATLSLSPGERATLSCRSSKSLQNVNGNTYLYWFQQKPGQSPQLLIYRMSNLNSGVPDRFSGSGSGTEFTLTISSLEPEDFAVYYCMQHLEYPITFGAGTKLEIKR . Output its MFIR HisTag FITC only.
Result :: 4.05
